Tested on: 885512-296-R-J2-PDC complex spheroid viability;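 further: spheroids exposed to the compounds for one week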
assay_method_text: Anticancer human tumor 885512-296-R-J2-PDC patient-derived breast carcinoma cell line growth inhibition [GQUAD]; active means viability on the fitted dose curve at most 10% of control; inactive means the rest
measurement_context: second compound 1 µM; first compound 0.0316 µM
Could you please pick one outcome from this set? t = active, f = inactive

Cn1ncnc1[C@H]1c2n[nH]c(=O)c3cc(F)cc(c23)N[C@@H]1c1ccc(F)cc1 + Cc1[nH]c2ccc(F)cc2c1-c1nc2c3cccnc3c3ncccc3c2[nH]1 = f
CCCS(=O)(=O)Nc1ccc(F)c(C(=O)c2c[nH]c3ncc(-c4ccc(Cl)cc4)cc23)c1F + Cc1[nH]c2ccc(F)cc2c1-c1nc2c3cccnc3c3ncccc3c2[nH]1 = f
CC1COCCN1c1cc(C2(S(C)(=N)=O)CC2)nc(-c2ccnc3[nH]ccc23)n1 (stereo unspecified) + Cc1cnc(CNC(=O)c2c(=O)c3ccc(N4CCCN(C)CC4)nc3n3c2sc2ccccc23)cn1 = f
COc1ncnc(C2CC2)c1-c1ncc2cnn(Cc3ccc(-c4nc(C(F)(F)F)cn4C(C)C)cc3)c2n1 + Cc1[nH]c2ccc(F)cc2c1-c1nc2c3cccnc3c3ncccc3c2[nH]1 = f
COc1cccc2c1C(=O)c1c(O)c3c(c(O)c1C2=O)CC(O)(C(=O)CO)CC3OC1CC(N)C(O)C(C)O1 (stereo unspecified) + CN(C)c1ccc(Nc2c3ccc(NC(=O)CCN4CCCC4)cc3nc3cc(NC(=O)CCN4CCCC4)ccc23)cc1 = f
CCCS(=O)(=O)Nc1ccc(F)c(C(=O)c2c[nH]c3ncc(-c4ccc(Cl)cc4)cc23)c1F + CN(C)c1ccc(Nc2c3ccc(NC(=O)CCN4CCCC4)cc3nc3cc(NC(=O)CCN4CCCC4)ccc23)cc1 = f
Cc1[nH]c2ccccc2c1CCNCc1ccc(/C=C/C(=O)NO)cc1 + Cc1cnc(CNC(=O)c2c(=O)c3ccc(N4CCCN(C)CC4)nc3n3c2sc2ccccc23)cn1 = f
COc1ccc([C@@H](O)c2cc(-c3ncnc4cc(N5CCOCC5)ccc34)c(F)cc2Cl)nn1 + CN(C)c1ccc(Nc2c3ccc(NC(=O)CCN4CCCC4)cc3nc3cc(NC(=O)CCN4CCCC4)ccc23)cc1 = f

QUERY: Recorded test outcome, item C=CCn1c(=O)c2cnc(Nc3ccc(N4CCN(C)CC4)cc3)nc2n1-c1cccc(C(C)(C)O)n1 + CN(C)c1ccc(Nc2c3ccc(NC(=O)CCN4CCCC4)cc3nc3cc(NC(=O)CCN4CCCC4)ccc23)cc1
RESULT: f

QUERY: Lab log entry: CC1COCCN1c1cc(-c2ccnn2C)c2ccnc(-c3ccn[nH]3)c2n1 (stereo unspecified) + Cc1cnc(CNC(=O)c2c(=O)c3ccc(N4CCCN(C)CC4)nc3n3c2sc2ccccc23)cn1 — outcome as called in the assay?
RESULT: t

QUERY: Could you please tell me the result logged for O=C(c1cc(Cc2n[nH]c(=O)c3ccccc23)ccc1F)N1CCN(C(=O)C2CC2)CC1 + Cc1[nH]c2ccc(F)cc2c1-c1nc2c3cccnc3c3ncccc3c2[nH]1 in this assay?
RESULT: f
